Data provenance is PubChem BioAssay AID1259398.

Parameter: inhibition. Scope: all listed entries.
# System: Cyclic GMP-AMP synthase (Homo sapiens) (UniProt Q8N884)
# Sequence (Q8N884 whole entry, looked up): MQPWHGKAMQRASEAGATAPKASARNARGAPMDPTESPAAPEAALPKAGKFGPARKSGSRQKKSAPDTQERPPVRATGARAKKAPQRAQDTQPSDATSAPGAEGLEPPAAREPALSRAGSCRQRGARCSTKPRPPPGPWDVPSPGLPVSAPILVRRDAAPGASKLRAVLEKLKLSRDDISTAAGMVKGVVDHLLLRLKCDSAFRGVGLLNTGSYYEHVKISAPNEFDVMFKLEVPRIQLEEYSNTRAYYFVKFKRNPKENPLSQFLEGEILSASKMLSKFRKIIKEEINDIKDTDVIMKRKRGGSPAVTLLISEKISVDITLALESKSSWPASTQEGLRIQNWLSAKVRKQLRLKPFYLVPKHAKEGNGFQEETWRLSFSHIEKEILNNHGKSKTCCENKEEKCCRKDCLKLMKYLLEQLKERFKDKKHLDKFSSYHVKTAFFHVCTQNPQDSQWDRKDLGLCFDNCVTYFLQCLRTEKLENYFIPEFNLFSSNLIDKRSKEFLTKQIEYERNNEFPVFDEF
# Run Description: Primary biochemical luminescence assay for human cyclic GMP-AMP synthase inhibitors (AID 1259398);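 further: 0% = vehicle reaction and 100% = reaction without DNA for no activity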
# Condition Info: recombinant h-cGAS, ATP depletion, Kinase-Glo luminescence; at 12.5 µM; stronger effect = higher value
In all, about 290,000 compounds went through this assay and about 230 (0.079%) were called active. For the sample, actives were picked, then their nearest neighbours and some compounds at random.
Reported Metric: inhibition (%)

# Compound, Reported Metric, Quantitative Readout
measured = [
    ("CS(=O)(=O)c1ccc(-c2ccc(NS(=O)(=O)c3cccs3)cc2)nn1", "inhibition", -9.35),
    ("O=C(c1cn[nH]c1-c1ccc(F)cc1)N1CCN(S(=O)(=O)c2ccccc2)CC1", "inhibition", -8.02),
    ("COCCNC(=O)Cn1nc2c(c1NC(=O)Cc1ccc(F)cc1)CSC2", "inhibition", -6.17),
    ("C(=C\\c1ccccc1)/CSc1nnc2c(n1)[nH]c1ccccc12", "inhibition", -6.1),
    ("O=C(OCC(=O)N1CCCC1c1ccc(Cl)c(Cl)c1)C1CCOC1 (stereo unspecified)", "inhibition", -2.27),
    ("CCC(C(=O)N1CCN(C(C(=O)Nc2cccc(Cl)c2)C2CCCC2)CC1)c1ccccc1 (stereo unspecified)", "inhibition", -0.887),
    ("Cc1ccc(-c2cc(C(=O)O)[nH]n2)c(C)c1", "inhibition", -5.69),
    ("CCCCS(=O)(=O)N1CCCN(c2nc(CCC)nc3onc(-c4cccc(C(F)(F)F)c4)c23)CC1", "inhibition", -3.14),
    ("CC(=O)N(c1ccccc1)C1C=C(Nc2ccccc2)C(=O)C1 (stereo unspecified)", "inhibition", -10.4),
    ("Cn1cnnc1Sc1ccc(Cl)cc1NC(=O)C1CCCCC1", "inhibition", -8.95),
    ("CCc1nnc(CNc2cc(Cl)ccc2F)n1C", "inhibition", -5.8),
]
